TEST_NAME: Selectivity index, ratio of TC50 for human SK-MEL-28 cells to EC50 for human SK-MEL-28 cells
Can you tell me Selectivity Index for the items I'm about to list?

Here's what some known entries look like.
1. CCSc1ccc2c(c1)C1=Nc3c4ccc(SCC)cc4c4n3[B-]3(Oc5ccc(C[C@H](NC(=O)OC(C)(C)C)C(=O)OC)cc5)n5c(c6cc(SCC)ccc6c5=N4)=NC2=[N+]13 (stereo partly drawn)    >21
2. COC(=O)[C@H](Cc1ccc(O[B-]23n4c5c6c(F)c(F)c(F)c(F)c6c4N=c4c6c(F)c(F)c(F)c(F)c6c(n42)=NC2=[N+]3C(=N5)c3c(F)c(F)c(F)c(F)c32)cc1)NC(=O)OC(C)(C)C (stereo partly drawn)    >1.51

# evaluate next
Exercise: Looking for the measured Selectivity Index of Fc1c(F)c(F)c2c(c1F)C1=Nc3c4c(F)c(F)c(F)c(F)c4c4n3[B-]3(OCc5ccc6c(c5)OCCOCCOCCOCCOCCO6)n5c(c6c(F)c(F)c(F)c(F)c6c5=N4)=NC2=[N+]13 (stereo not drawn) , can you help?
Key: 1.16

* * *

TEST_NAME: Drug uptake in human HeLa cells assessed per mg protein measured upto 12 hrs by spectrofluorometric method
Type: ADME, cell-based
REPORTED_PROPERTY: Drug uptake (nmol/mg)
Numbers only, in nmol/mg.

Example compounds with recorded Drug uptake:
1. CCSc1ccc2c(c1)C1=Nc3c4ccc(SCC)cc4c4n3[B@-]3(Oc5ccc(C[C@H](N)C(=O)OC)cc5)n5c(c6cc(SCC)ccc6c5=N4)=NC2=[N+]13    0.622
2. Ic1ccc2c(c1)C1=[N+]3C2=Nc2c4ccc(I)cc4c4n2[B@-]3(OCc2ccc3c(c2)OCCOCCOCCOCCOCCO3)n2c(c3cc(I)ccc3c2=N4)=N1    0.33
3. CCSc1ccc2c(c1)C1=Nc3c4ccc(SCC)cc4c4n3[B-]3(Oc5ccc(C[C@H](NC(=O)OC(C)(C)C)C(=O)OC)cc5)n5c(c6cc(SCC)ccc6c5=N4)=NC2=[N+]13 (some centres undefined)    0.121

Exercise: // returns reported Drug uptake for input CCSc1ccc2c(c1)C1=Nc3c4ccc(SCC)cc4c4n3[B-]3(OCc5ccc6c(c5)OCCOCCOCCOCCOCCO6)n5c(c6cc(SCC)ccc6c5=N4)=NC2=[N+]13 (centres undefined)
Key: 9.69

* * *

Hi there, I'd appreciate the recorded CC50 at 24 h for every entry that follows.
TEST_NAME: Dark toxicity against human HeLa cells assessed as reduction in cell viability incubated for 24 hrs by neutral red uptake assay
Assay type: cell-based
SETTINGS: read-out: TC50

// worked examples, CC50 at 24 h included
1) CCSc1ccc2c(c1)C1=Nc3c4ccc(SCC)cc4c4n3[B-]3(Oc5ccc(C[C@H](NC(=O)OC(C)(C)C)C(=O)OC)cc5)n5c(c6cc(SCC)ccc6c5=N4)=NC2=[N+]13 (stereo partly drawn)    > 100 µM
2) COC(=O)[C@@H](N)Cc1ccc(O[B-]23n4c5c6ccc(I)cc6c4N=c4c6ccc(I)cc6c(n42)=NC2=[N+]3C(=N5)c3ccc(I)cc32)cc1 (stereo partly drawn)    > 100 µM

// switching to the query compound
Exercise: CC50 at 24 h for COC(=O)[C@H](Cc1ccc(O[B@@-]23n4c5c6ccc(I)cc6c4N=c4c6ccc(I)cc6c(n42)=NC2=[N+]3C(=N5)c3ccc(I)cc32)cc1)NC(=O)OC(C)(C)C ?
Key: > 50 µM
